target_or_system: MaxL homodimer (Homo sapiens, UniProt P61244 1-160)
Sequence (P61244 whole entry): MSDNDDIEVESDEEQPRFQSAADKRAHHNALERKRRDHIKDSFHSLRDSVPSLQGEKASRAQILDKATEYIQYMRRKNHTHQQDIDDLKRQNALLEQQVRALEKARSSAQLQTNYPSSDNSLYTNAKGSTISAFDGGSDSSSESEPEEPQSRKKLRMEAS
assay_name: universal protein-binding microarray (PBM); PBS-based mixture, 10 nM His-tagged protein dimer, 2% milk, 200 ng/uL BSA, 50 ng/uL salmon testes DNA, 0.02% TX-100; detection with Alexa 488 anti-His antibody;; high values mean tight binding;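 further: fluorescence intensity normalized to that of the highest-ranked 8-mer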
conditions: protein: recombinant; tags: C-terminal His-tag (pET21a); chain copies: 2; dsDNA, one strand shown
In all, about 33,000 sequences were measured (“normalized occupancy”: median about 0.075, highest 2% from about 0.095 on). The full list was thinned out, with the highest values kept by preference.
The reader will find reported binding signal values listed item by item below.

- chain: "CTACCCGA"
  target_or_system: "MaxL homodimer (Homo sapiens, UniProt P61244 1-160)"
  binding signal: "0.0741 normalized occupancy"
- chain: "TCGTAAAA"
  target_or_system: "MaxL homodimer (Homo sapiens, UniProt P61244 1-160)"
  binding signal: "0.0794 normalized occupancy"
- chain: "ACCCCATA"
  target_or_system: "MaxL homodimer (Homo sapiens, UniProt P61244 1-160)"
  binding signal: "0.0838 normalized occupancy"
- chain: "CCCATGGG"
  target_or_system: "MaxL homodimer (Homo sapiens, UniProt P61244 1-160)"
  binding signal: "0.0962 normalized occupancy"
- chain: "ATGAACAA"
  target_or_system: "MaxL homodimer (Homo sapiens, UniProt P61244 1-160)"
  binding signal: "0.0807 normalized occupancy"
- chain: "CACGAGTG"
  target_or_system: "MaxL homodimer (Homo sapiens, UniProt P61244 1-160)"
  binding signal: "0.0961 normalized occupancy"
- chain: "AATCGGGA"
  target_or_system: "MaxL homodimer (Homo sapiens, UniProt P61244 1-160)"
  binding signal: "0.0782 normalized occupancy"
- chain: "CACGAGTC"
  target_or_system: "MaxL homodimer (Homo sapiens, UniProt P61244 1-160)"
  binding signal: "0.0906 normalized occupancy"
- chain: "AAATGCTG"
  target_or_system: "MaxL homodimer (Homo sapiens, UniProt P61244 1-160)"
  binding signal: "0.0762 normalized occupancy"
- chain: "AGTCTCGA"
  target_or_system: "MaxL homodimer (Homo sapiens, UniProt P61244 1-160)"
  binding signal: "0.0741 normalized occupancy"
- chain: "AACGAGTG"
  target_or_system: "MaxL homodimer (Homo sapiens, UniProt P61244 1-160)"
  binding signal: "0.0753 normalized occupancy"
- chain: "AACCCATT"
  target_or_system: "MaxL homodimer (Homo sapiens, UniProt P61244 1-160)"
  binding signal: "0.0783 normalized occupancy"
- chain: "CATAGGGG"
  target_or_system: "MaxL homodimer (Homo sapiens, UniProt P61244 1-160)"
  binding signal: "0.085 normalized occupancy"
- chain: "AACGAGTA"
  target_or_system: "MaxL homodimer (Homo sapiens, UniProt P61244 1-160)"
  binding signal: "0.077 normalized occupancy"
- chain: "CACTTCGC"
  target_or_system: "MaxL homodimer (Homo sapiens, UniProt P61244 1-160)"
  binding signal: "0.0739 normalized occupancy"
- chain: "ACTTGACA"
  target_or_system: "MaxL homodimer (Homo sapiens, UniProt P61244 1-160)"
  binding signal: "0.0819 normalized occupancy"
- chain: "ACCCCATG"
  target_or_system: "MaxL homodimer (Homo sapiens, UniProt P61244 1-160)"
  binding signal: "0.102 normalized occupancy"
- chain: "CACCCATA"
  target_or_system: "MaxL homodimer (Homo sapiens, UniProt P61244 1-160)"
  binding signal: "0.0892 normalized occupancy"
- chain: "ATTGAACG"
  target_or_system: "MaxL homodimer (Homo sapiens, UniProt P61244 1-160)"
  binding signal: "0.082 normalized occupancy"
- chain: "GTACTACA"
  target_or_system: "MaxL homodimer (Homo sapiens, UniProt P61244 1-160)"
  binding signal: "0.0864 normalized occupancy"
- chain: "CACGAGAG"
  target_or_system: "MaxL homodimer (Homo sapiens, UniProt P61244 1-160)"
  binding signal: "0.0911 normalized occupancy"
- chain: "CCGTCTAA"
  target_or_system: "MaxL homodimer (Homo sapiens, UniProt P61244 1-160)"
  binding signal: "0.0757 normalized occupancy"
